target: SARS-CoV-2 spike protein (SARS-CoV-2, UniProt P0DTC2 14-1208)
value_type: pKd
Scale note: pKd = -log10(concentration in M).

The recorded pKd for entry antibody 468 (antibody, V domains shown) VH: QVQLVESGGGVVQPGRSLRLSCAASGFTFSIYAMHWVRQAPGKGLEWVAVISYDGSNKYYADSVKGRFTISRDNSKNTLYLQMNSLRAEDTAVYYCAGSLPAGSYYYYYGMDVWGQGTTVTVSS VL: SYELTQPPSVSVSPGQTARITCSGDALPKQYAYWYQQKPGQAPVLVIYKDSERPSGIPERFSGSSSGTTVTLTISGVQAEDEADYYCQSADNSGTYVLFGGGTKLTVL equals 9.33

The recorded pKd for entry antibody 402 (antibody, V domains shown) VH: QVQLVQSGAEVKKPGASVKVSCKVSGYTLTELSMHWVRQAPGKGLEWMGGFDPEDVETIYAQKFQGRVTMTEDTSTDTAYMELSSLRSEDTAVYYCATGVAVVGTSHSYYYYYGMDVWGQGTTVTVSS VL: DIQMTQSPSSLSASVGDRVTITCRASQGISNYLAWYQQKPGKVPKLLIYAASTLQSGVPSRFSGSGSGTDFTLTISSLQPEDVATYYCQKYNSAPFTFGPGTKVDIK equals 8.67

The recorded pKd for entry antibody 440 (antibody, V domains shown) VH: EVQLLESGGGLVQPGGSLRLSCAASGFTFSSYAMSWVRQAPGKGLEWVSAISGSGVNTYHADSVKGRFTISRDNSRNTLYLQMSSLTAEDTAAYYCAKDFEAASGAYYYYGMDVWGQGTTVTVSS VL: SYELTQPPSVSVSPGQTARITCSGDALPDQYAYWYQQKPGQAPVVVIYKDRERPSGIPERFSGSNSGTTVTLTISGVQAEDEADYYCQSADSSATYVVFGGGTKLTVL equals 8.10
